Exercise: for every item that follows, state its recorded TGI.
system: MCF7 breast; test: NCI tumour cell line growth inhibition, 48 h
*1 amine or outer side, *2 acyl side, *3 side chain or, on linkers, in order; H or OH if unused. Where a SMILES comes first, the peptide text is derived from it. Bridges are numbered along the chain shown (N, C = ends). Roman numbers before positions name the chains, in order. [ ]: non-standard residue; d: D form. Actinocin(9to1) = Cc1c2oc3c(C)ccc(C(=O)[*:1])c3nc-2c(C(=O)[*:2])c(N)c1=O; NMeH = CN[CH](Cc1c[nH]cn1)C(=O)O; Sar = CNCC(=O)O

Look up TGI: `C=CO/N=[N+](\[O-])N(CC)CC` > 100 µM

For `Cc1cc(S(=O)(=O)Nc2nc3ncccc3[nH]2)c(S)cc1Cl` then? > 100 µM

For `CCCC[C@@H](C)/C=C1\CN2CCC[C@H]2[C@@](C)(OCc2ccccc2)[C@@H]1O` then? > 50 µM

For `O=C(NCCN1CCOCC1)OCc1nc2nc(Cl)nc(N3CCOCC3)c2[nH]1` then? > 100 µM

For Cc1c2oc3c(C)ccc(C(=O)NC4C(=O)NC(C(C)C)C(=O)N5CCCC5C(=O)N(C)CC(=O)N(C)C(Cc5cnc[nH]5)C(=O)OC4C)c3nc-2c(C(=O)NC2C(=O)NC(C(C)C)C(=O)N3CCCC3C(=O)N(C)CC(=O)N(C)C(Cc3cnc[nH]3)C(=O)OC2C)c(N)c1=O (stereo not given) (I: TVP[Sar][NMeH] / II: TVP[Sar][NMeH]; ester I:1-I:C, II:1-II:C; linker I:N-II:N via Actinocin(9to1); configuration not given here) then? > 100 µM

For `N#CC1(C#N)C(C#N)(C#N)C1(C#N)C(N)=O` then? > 100 µM

For `O=C1CCc2c(sc3[nH]c(=S)n(-c4cc(C(F)(F)F)cc(C(F)(F)F)c4)c(=O)c23)C1` then? 16.4 µM

For `C#C[C@]1(O)CC[C@H]2[C@@H]3CC=C4c5sc(Nc6cc(F)ccc6F)nc5CC[C@]4(C)[C@H]3CC[C@@]21C` then? 3.26 µM

For `CCn1c(=O)c2nc(SC)sc2n(-c2ccc(C)cc2)c1=O` then? > 100 µM

For `CCC(=O)N1C/C(=C/c2ccc(Cl)cc2)C(=O)/C(=C/c2ccc(Cl)cc2)C1` then? 1.36 µM
